Protocol description: Stability of peptides in human liver microsomes
Assay type: in vitro ADME
Measurement setup: human, microsomes
Where a SMILES comes first, the peptide text is derived from it. [ ]: non-standard residue; d: D form. ξ: configuration not given here. ξαMeBip(2'-Et,4'-OMe) = CCc1cc(OC)ccc1-c1ccc(CC(C)(N)C(=O)O)cc1; ξαMePhe(2-F) = CC(N)(Cc1ccccc1F)C(=O)O; hhPhe = N[C@@H](CCCc1ccccc1)C(=O)O; hArg = N=C(N)NCCCC[C@H](N)C(=O)O; ξαMeM = CSCCC(C)(N)C(=O)O; Aib = CC(C)(N)C(=O)O
Assay metric: half-life (t1/2) in liver microsomes

Ask: Entry CCc1cc(OC)ccc1-c1ccc(CC(C)(NC(=O)[C@H](CCCCN)NC(=O)[C@H](C)NC(=O)[C@H](CCCCNC(=N)N)NC(=O)[C@H](CCC(N)=O)NC(=O)[C@H](Cc2c[nH]cn2)NC(=O)[C@H](CCSC)NC(=O)[C@H](CC(C)C)NC(=O)[C@H](CCC(N)=O)NC(=O)[C@@H](NC(=O)[C@H](CCC(=O)O)NC(=O)C(C)(C)NC(=O)[C@@H](NC(=O)C(C)(C)N)C(C)C)[C@@H](C)CC)C(=O)N[C@@H](CCCc2ccccc2)C(N)=O)cc1 (stereo partly drawn) [Seq. ID. 890] (H-[Aib]V[Aib]EIQLMHQ[hArg]AK[ξαMeBip(2'-Et,4'-OMe)][hhPhe]-NH2) has what half-life (t1/2) in liver microsomes?
Reply: (5) h

Ask: Entry CC[C@H](C)[C@H](NC(=O)[C@H](CCC(=O)O)NC(=O)C(C)(C)NC(=O)[C@@H](NC(=O)C(C)(C)N)C(C)C)C(=O)N[C@@H](CCC(N)=O)C(=O)N[C@@H](CC(C)C)C(=O)NC(C)(CCSC)C(=O)N[C@@H](Cc1c[nH]cn1)C(=O)N[C@@H](CCC(N)=O)C(=O)N[C@@H](CCCCNC(=N)N)C(=O)N[C@@H](C)C(=O)N[C@@H](CCCCNC(=N)N)C(=O)NC(C)(Cc1ccccc1F)C(=O)N[C@@H](CCCc1ccccc1)C(N)=O (stereo partly drawn) [Seq. ID. 930] (H-[Aib]V[Aib]EIQL[ξαMeM]HQ[hArg]A[hArg][ξαMePhe(2-F)][hhPhe]-NH2) has what half-life (t1/2) in liver microsomes?
Reply: (5) h

Ask: Entry CC[C@H](C)[C@H](NC(=O)[C@H](CCC(=O)O)NC(=O)C(C)(C)NC(=O)[C@@H](NC(=O)C1(NC(=O)[C@@H](N)C(C)C)CC1)C(C)C)C(=O)N[C@@H](CCC(N)=O)C(=O)N[C@@H](CC(C)C)C(=O)NC(C)(CCSC)C(=O)N[C@@H](Cc1c[nH]cn1)C(=O)N[C@@H](CCC(N)=O)C(=O)N[C@@H](CCCCNC(=N)N)C(=O)N[C@@H](C)C(=O)N[C@@H](CCCCNC(=N)N)C(=O)NC(C)(Cc1c[nH]c2ccccc12)C(=O)NC(C)(CCCc1ccccc1)C(N)=O (single isomer, unassigned) [Seq. ID. 950] has what half-life (t1/2) in liver microsomes?
Reply: (5) h
